# System: serum of BALB/c mice
# PROTOCOL TEXT: Dot-ELISA, synthetic peptides with serum of immunized BALB/c mice
# Type: in vivo
# Parameters: key: — = Did not react; X = Reacted
# RECORDED CONDITIONS: Dot-ELISA; peptide as antigen; serum of mouse 1 inoculated with the same isolated peptide; serum 1:25
REPORTED METRIC: Peptide Reactivity, Mice serum inoculated with isolated peptides 1

[[record]]
chain_sequence = "SECVSLQPTDSSSASGQQQEGGGGLQGHMIDAVLETAINSDIPGVLRAIVSRDV (Synthetic hybrid peptide) [P54]"
result = "X"

[[record]]
chain_sequence = "SSVSSQSDQASTSSQLGGGGAMGDSVHWKVKPVDNKLFIMP (Synthetic hybrid peptide) [P41]"
result = "—"

[[record]]
chain_sequence = "LAESTEGNLEEVWILGKGGGGFSESMKALIKKYVDTSKPTIYVDQGTVMKV (Synthetic hybrid peptide) [P51]"
result = "—"

[[record]]
chain_sequence = "GASTDDAAAAAKIVAMAYGRGGGGGASSVDALTATKLVAAALGH (Synthetic hybrid peptide) [P44]"
result = "X"


Now for a further sequence.
Give Peptide Reactivity, Mice serum inoculated with isolated peptides 1 for the following sequence: SKVASVEYILAARGGGGQVDRLANALGKGGGGAMGDSVHWKVKPVDNKLFIMP (Synthetic hybrid peptide) [P53]
—
